Test: photoluminescence quantum yield (fraction); solvent given as SMILES
Conditions: in ClC(Cl)Cl
observable: photoluminescence quantum yield

>>> recorded_number("Cc1ccc(-c2ccc(/C=C/c3cccn3C)cn2)nc1")
0.25
>>> recorded_number("N#Cc1c(C#N)c2ccccc2c2ccccc12")
0.17

I = Fc1cccc(C2=Cc3ccc4ccccc4[n+]3[B-](F)(F)O2)c1
II = CCCCCCN(c1ccccc1)c1ccc(/C=C/c2cc(=O)oc3cc(C)ccc23)cc1
Lookup: Given the listed records, identify the one among I and II with higher photoluminescence quantum yield. Identify your pick by its label.
Found: I

###

Test: photoluminescence quantum yield (fraction); solvent given as SMILES
Conditions: in C1CCCCC1
observable: photoluminescence quantum yield

>>> recorded_number("F[B-]1(F)n2c(Nc3cccc4cccnc34)ccc2C(c2ccccc2)=C2C=CC(Cl)=[N+]21")
0.17

A = c1cc2ccc3ccc4ccc5ccc1c1c2c3c4c51
B = CCCC1(CCC)c2cc(-c3ccc(C(C)(C)C)cc3)ccc2-c2ccc(-c3ccc4c(c3)C(CCC)(CCC)c3cc(-c5ccc6c(c5)C(CCC)(CCC)c5cc(-c7ccc8c(c7)C(CCC)(CCC)c7cc(-c9ccc(C(C)(C)C)cc9)ccc7-8)ccc5-6)ccc3-4)cc21
C = COCCC1(CCOC)c2cc(-c3ccc(OC)cc3)ccc2-c2ccc(-c3ccc(OC)cc3)cc21
Lookup: Rank order required: photoluminescence quantum yield, descending. Ranked list of labels, please, in the requested order.
Found: B, C, A

###

Test: photoluminescence quantum yield (fraction); solvent given as SMILES
Conditions: in CC#N
observable: photoluminescence quantum yield

>>> recorded_number("COc1cccc2c1C(=O)c1ccccc1-2")
0.0073
>>> recorded_number("CCOC(=O)CN1C(=O)C2=C(c3ccc(C#N)cc3)N(CC(=O)OCC)C(=O)C2=C1c1ccc(C#N)cc1")
0.32
>>> recorded_number("CCc1c(C)c2n(c1C)[B-](F)(F)[N+]1=C(c3ccc[nH]3)c3ccccc3C1=C2")
0.74
>>> recorded_number("O=C1/C(=C/C=C/c2cc3c4c(c2)CCCN4CCC3)CC/C1=C\\C=C\\c1cc2c3c(c1)CCCN3CCC2")
0.037
>>> recorded_number("CCc1c(C)[nH]c(C2=[N+]3C(=C(C)c4c(C)c(CC)c(C)n4[B-]3(F)F)c3ccccc32)c1C")
0.21
>>> recorded_number("CC1=N/C(=C\\c2ccncc2)C(=O)N1C")
0.047
>>> recorded_number("N#C/C(=C\\c1ccc(C#N)cc1)c1nc(-c2ccccc2)cs1")
0.18
>>> recorded_number("O=[N+]([O-])c1ccc(NCCNCc2c3ccccc3cc3ccccc23)c([N+](=O)[O-])c1")
0.00168

1 = O=C(O)c1ccccc1-c1nc(-c2ccccc2)c2ccccn12
2 = COc1cccc2cc(-c3ccc([N+](=O)[O-])cc3)c(=O)oc12
Lookup: Given 1 and given 2 , which shows the smaller recorded photoluminescence quantum yield? Please indicate the selected item by its label.
Found: 2

###

Experiment: photoluminescence quantum yield (fraction); solvent given as SMILES
Conditions: in ClC(Cl)Cl
observable: photoluminescence quantum yield

Worked examples follow.
>>> recorded_number("CCCCN1c2ccc(/C=C/c3cc(=O)oc4cc(C)ccc34)cc2Sc2cc(/C=C/c3cc(=O)oc4cc(C)ccc34)ccc21")
0.83
>>> recorded_number("CC[N+](CC)=c1ccc2c(-c3ccccc3C(=O)O)c3c(=O)oc4c5c6c(cc4c3oc-2c1)CCCN6CCC5")
0.09
>>> recorded_number("Cc1c2c(c(C)c3ccccc13)C1=C2C=CC2Nc3ccccc3NC12 (stereo unspecified)")
0.74

1 = C[Si](C)(C)C#Cc1c2c(=O)c3ccccc3c2c(C#C[Si](C)(C)C)c2c(=O)c3ccccc3c12
2 = F[B-]1(F)n2c(-c3ccccc3)cnc2-c2cccc[n+]21
Lookup: I'm curious whether 1 or 2 has the smaller photoluminescence quantum yield number. Which is it? // respond with label for picked entry
Found: 1
(1: 0.08, 2: 0.24)

P = CCCCCCCCCCCCOc1cc2c3c(ccc4c5c(SCCCCCCCCCCCC)cc6c7c(ccc(c1c34)c75)C(=O)N(C1CCCCC1)C6=O)C(=O)N(C1CCCCC1)C2=O
Q = Clc1ccc(-c2nc(-c3ccccc3)c(N(c3ccccc3)c3ccccc3)s2)cc1
Lookup: Between these two entries, P and Q , state which has the higher photoluminescence quantum yield. Lab log: write the label of the selected item as the result.
Found: Q
(Q: 0.56, P: 0.39)

###

Assay: photoluminescence quantum yield (fraction); solvent given as SMILES
Conditions: in CCO
observable: photoluminescence quantum yield

Worked set:
>>> recorded_number("C=CCNc1ccc2ccc3oc4cc(=O)ccc-4nc3c2c1")
0.04
>>> recorded_number("COc1ccc2c(c1)C(=O)c1cc(OC)cc(OC)c1-2")
0
>>> recorded_number("C(=C\\c1cnc2ccccc2n1)/c1cnccn1")
0.0012
>>> recorded_number("CN1/C(=C/C=C(/C=C/C2=[N+](C)c3ccccc3C2(C)C)c2ccc(C(F)(F)F)cc2)C(C)(C)c2ccccc21")
0.11

1 = CC(C)(C)OC(=O)NC(C(=O)OCc1ccc2c3cccc4cccc(c5cccc1c52)c43)c1c[nH]c2ccccc12 (stereo unspecified)
2 = C=CCNc1ccc2c(ccc3oc4cc(=[N+](C)C)ccc-4nc32)c1
Lookup: Hi team, can someone confirm which has the larger photoluminescence quantum yield: 1 or 2 ? Thanks. To answer, give the label that identifies your chosen option.
Found: 1
(1: 0.86, 2: 0.05)

###

Assay: photoluminescence quantum yield (fraction); solvent given as SMILES
Conditions: in CS(C)=O
observable: photoluminescence quantum yield

>>> recorded_number("COc1ccc(/C=C/C(=O)c2ccccc2O)cc1OC")
0.47

1 = Cc1ccc(C2C3=C(CCCC3=O)Nc3c2c(=O)oc2ccccc32)cc1 (stereo not given)
2 = CC1=[N+]2C(=c3c4c5ccccc5cc5cccc(c6cc(C)n(c36)[B-]2(F)F)c54)C=C1
3 = CCOC(=O)C1=C(N)n2c(=O)c3ccccc3c(=O)n2C1c1cccs1 (stereo not given)
4 = NS(=O)(=O)c1ccc(N2N=C(c3ccc(O)cc3)CC2c2ccc([N+](=O)[O-])cc2)cc1 (stereo not given)
Lookup: Sort entries by photoluminescence quantum yield from minimum to maximum value. Sort the labels as requested; that list is your answer.
Found: 4, 2, 3, 1

###

Assay: photoluminescence quantum yield (fraction); solvent given as SMILES
Details: in CCCCCC
observable: photoluminescence quantum yield

Take a look at these entries with their results.
>>> recorded_number("F[B-]1(F)n2c(-c3ccccc3)cnc2-c2cccc[n+]21")
0.32
>>> recorded_number("COC1=[N+]2C(=C(c3ccccc3)c3cc(SC#N)c(OC)n3[B-]2(F)F)C=C1SC#N")
0.1
>>> recorded_number("O=C1/C(=C/C=C/c2cc3c4c(c2)CCCN4CCC3)CC/C1=C\\C=C\\c1cc2c3c(c1)CCCN3CCC2")
0.13
>>> recorded_number("CC(C)(C)c1ccc(-c2cc3c4c(c2)CCc2cc(-c5ccc(C(C)(C)C)cc5)cc(c2-4)CC3)cc1")
0.52
>>> recorded_number("Cc1ccc2c(c1)C(=O)c1ccncc1-2")
0.0032

P = C1CCN2CCCn3c2c(c2c3=NCCN=2)C1
Q = C(=C\c1cnc2ccccc2n1)/c1cnccn1
Lookup: Of P versus Q , which is the one with smaller reported photoluminescence quantum yield? Answer format: the label of the selected item.
Found: Q
(Q: 0.0014, P: 0.36)

###

As shown below, each of these compounds has a reported photoluminescence quantum yield value.
Test: photoluminescence quantum yield (fraction); solvent given as SMILES
Conditions: in ClCCl
Format: numeric value only, no unit, no commentary.

Some entries whose results are on file:
>>> recorded_number("CC(=O)c1c2c(cc3cc(N(C)C)ccc13)CCC2")
0.82
>>> recorded_number("O=C(O)C1=C(C(=O)O)C2=C[C@H]3c4ccccc4[C@]2([Se]1)c1ccccc13")
0.38
>>> recorded_number("S=P1(c2ccccc2)C(c2ccccc2)=Cc2cc3ccccc3cc21 (stereo not given)")
0.001
>>> recorded_number("CCc1cccc(CC)c1-c1c2ccccc2c(-c2c(CC)cccc2CC)c2cc3ccccc3cc12")
0.56

// next item, photoluminescence quantum yield requested
Lookup: Identify measured photoluminescence quantum yield associated with Fc1ccc(-c2cc3ccc4cc(-c5ccc(F)cc5)cc5ccc(c2)c3c45)cc1
Found: 0.05

###

photoluminescence quantum yield by entry:
Assay: photoluminescence quantum yield (fraction); solvent given as SMILES
Conditions: in O=P(c1ccccc1)(c1ccccc1)c1ccccc1Oc1ccccc1P(=O)(c1ccccc1)c1ccccc1
Please respond with just the number, no unit label.

Examples with answers:
>>> recorded_number("Cc1ccc2c(c1)c1cc(C)ccc1n2-c1cc(-c2nc(-c3ccccc3)nc(-c3ccccc3)n2)cc(-n2c3ccc(C)cc3c3cc(C)ccc32)c1-n1c2ccc(C)cc2c2cc(C)ccc21")
1
>>> recorded_number("O=C(c1ccc(-n2c3ccccc3c3ccccc32)cc1)c1ccc(-n2c3ccccc3c3ccccc32)cc1")
0.55
>>> recorded_number("Cc1cc(N2c3ccccc3C(C)(C)c3ccccc32)ccc1-c1ncnc(-c2ccc(N3c4ccccc4C(C)(C)c4ccccc43)cc2C)c1C")
0.47
>>> recorded_number("N#Cc1cc(C#N)c(-n2c3ccccc3c3c(-c4cccc5c4c4ccccc4n5-c4cc(-n5c6ccccc6c6ccccc65)c(C#N)cc4C#N)cccc32)cc1-n1c2ccccc2c2ccccc21")
0.61
>>> recorded_number("N#Cc1cc(C#N)cc(-n2c3ccccc3c3cc(-c4ccc5c(c4)c4ccccc4n5-c4cc(C#N)cc(C#N)c4)ccc32)c1")
0.58
>>> recorded_number("CC(C)(C)c1ccc2c(c1)c1cc(C(C)(C)C)ccc1n2-c1cccc(-c2nc(-c3cccc(P(=O)(c4ccccc4)c4ccccc4)c3)nc(-c3cccc(P(=O)(c4ccccc4)c4ccccc4)c3)n2)c1")
0.72

Lookup: Identify measured photoluminescence quantum yield corresponding to CC1(C)c2ccccc2N(c2ccc(-c3nnc(-c4ccc(-n5c6ccccc6c6ccccc65)cc4)o3)cc2)c2ccccc21
Found: 0.67

Lookup: Check the records and state photoluminescence quantum yield for O=S1(=O)c2ccccc2Oc2cc(N3c4ccccc4C4(c5ccccc53)c3ccccc3N(c3ccc5c(c3)Oc3ccccc3S5(=O)=O)c3ccccc34)ccc21
Found: 0.63

Lookup: Look up and report measured photoluminescence quantum yield for this entry: c1ccc(-c2nc(-c3ccccc3)nc(-n3c4ccccc4c4cc(-n5c6ccccc6c6ccccc65)cc(-n5c6ccccc6c6ccccc65)c43)n2)cc1
Found: 0.85

Lookup: Supply reported photoluminescence quantum yield belonging to this compound: Cc1cc(-c2nc(-c3ccccc3)nc(-c3ccccc3)n2)ccc1-n1c2ccccc2c2cc3c(cc21)C1c2ccccc2C3c2ccccc21
Found: 0.32

Lookup: Tell us which photoluminescence quantum yield value is on record for N#Cc1cc(C#N)c(-n2c3ccccc3c3cc(-c4ccc5c(c4)c4ccccc4n5-c4cc(-n5c6ccccc6c6ccccc65)c(C#N)cc4C#N)ccc32)cc1-n1c2ccccc2c2ccccc21
Found: 0.87

Lookup: Supply photoluminescence quantum yield value. Item: c1ccc2c(c1)c1ccccc1n2-c1ccc(-c2nnc(-c3ccc(-n4c5ccccc5c5ccccc54)cc3)o2)cc1
Found: 0.93

Lookup: Find the measured photoluminescence quantum yield of CC1(C)c2ccccc2N(c2ccc3c(c2)Oc2ccccc2P3(=O)c2ccccc2)c2ccccc21 (stereo not drawn) and report it.
Found: 0.62

Lookup: State its photoluminescence quantum yield: c1ccc(-c2cc(-c3ccc(N4c5ccccc5C(c5ccccc5)(c5ccccc5)c5ccccc54)cn3)nc(-c3ccccc3)n2)cc1
Found: 0.86

Lookup: Provide one value: measured photoluminescence quantum yield of CC1(C)c2ccccc2-n2c(-c3ccc(-n4c5ccccc5c5ccccc54)cc3)nc3cccc1c32
Found: 0.85

Lookup: Specify measured photoluminescence quantum yield for CC1(C)c2ccccc2-n2c(-c3ccc(N4c5ccccc5Oc5ccccc54)cc3)nc3cccc1c32 .
Found: 0.71

Lookup: Give the measured photoluminescence quantum yield for c1ccc(-c2nc(-c3ccccc3)nc(-c3ccc(-n4c5ccccc5c5cc6c(cc54)C4(c5ccccc5-c5ccccc54)c4ccccc4-6)cc3)n2)cc1
Found: 0.856

Lookup: Look up and report measured photoluminescence quantum yield for this entry: COc1ccc(-c2nnc(-c3cc(-c4nnc(-c5ccc(OC)cc5)o4)c(-n4c5ccccc5c5ccccc54)cc3-n3c4ccccc4c4ccccc43)o2)cc1
Found: 0.354

Lookup: Name the recorded photoluminescence quantum yield of the compound listed here: CC1(C)c2ccccc2N(c2ccc(-c3nnc(-c4ccc(N5c6ccccc6C(C)(C)c6ccccc65)cc4)o3)cc2)c2ccccc21
Found: 0.62

Lookup: Return reported photoluminescence quantum yield. Input compound: c1ccc2c(c1)Oc1ccccc1N2c1ccc(-c2nnc(-c3ccc(N4c5ccccc5Oc5ccccc54)cc3)o2)cc1
Found: 0.87
